We begin with a simple list: items and their reported IC50.
- Tested on: NCI-H1755;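 also: cell viability readout used to measure growth inhibition of NCI-H1755 cells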
- Protocol Details: cells
- Type: functional, cell-based, Homo sapiens
- Measurement Setup: Homo sapiens, NCI-H1755
- Description: SANGER: Inhibition of human NCI-H1755 cell growth in a cell viability assay.
Supply the numeric figure in µM, leaving out any unit text.

Mol	Units Symbol	IC50
CCC1=C[C@@H]2CN(C1)Cc1c([nH]c3ccccc13)[C@@](C(=O)OC)(c1cc3c(cc1OC)N(C)[C@H]1[C@@](O)(C(=O)OC)[C@H](OC(C)=O)[C@]4(CC)C=CCN5CC[C@]31[C@@H]54)C2	µM	0.0174

Now, please, on to the next compound.
q: Item under review: Cc1cc([C@@H](C)Nc2ccccc2C(=O)O)c2nc(N3CCOCC3)cc(=O)n2c1 . Reported IC50?
a: 3.27

All figures here come from ChEMBL document CHEMBL1201861.
